target system: RUNX1 (UniProt Q01196)
Sequence (Q01196 whole entry): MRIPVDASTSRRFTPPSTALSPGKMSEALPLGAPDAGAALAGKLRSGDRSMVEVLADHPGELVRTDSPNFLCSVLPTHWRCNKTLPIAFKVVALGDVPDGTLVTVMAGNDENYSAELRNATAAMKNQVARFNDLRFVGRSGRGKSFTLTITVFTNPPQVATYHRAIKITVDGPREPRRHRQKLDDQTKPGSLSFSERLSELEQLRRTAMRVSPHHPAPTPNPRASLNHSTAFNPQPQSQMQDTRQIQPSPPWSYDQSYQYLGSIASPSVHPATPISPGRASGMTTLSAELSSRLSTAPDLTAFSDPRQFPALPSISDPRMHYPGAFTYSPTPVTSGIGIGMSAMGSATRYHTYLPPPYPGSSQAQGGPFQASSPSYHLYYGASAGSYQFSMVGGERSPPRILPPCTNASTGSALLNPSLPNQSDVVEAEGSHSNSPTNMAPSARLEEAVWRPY
assay info: RUNX1 binding intensity (PBM fluorescence), RUNX1 alone (arbitrary fluorescence units); higher = stronger binding
settings: RUNX1 concentration 2 nM; ETS1 concentration 0 nM
Whole data set: some 4,000 sequences, median “arbitrary fluorescence units” near 830, cut for the highest 2% near 6,500. This is one part of a sample in which the highest values are shown more often than they occur.
Quick rule for you: RUNX1 binding intensity at 900 or higher means Satisfied, lower means Not satisfied.

In [3]: df
Out[3]:
                    biopolymer_sequence    group_label
0  TTGATAGCAAACCACACTCGGCACAGAAAGGAGAAC      Satisfied
1  GGGGCAGTGGTCACAGGAGGATCTTGCTGGAGTCAT  Not satisfied
2  AGGCTCATTGCCTGTTTTCATGTGGTTTAGAGAAAA      Satisfied
3  CCATTCTTACGGTGGAGATGGCTGCGGCCGTGGCGG  Not satisfied
4  GCCCCTGATAGCGTCCTCACCATCCCCACAGCGCCT      Satisfied

Origin of the recorded values: the supplement of paper PMC10681739
